Assign EC50 to each entry below.
- assay.target: WT mPIEZO1 (Mus musculus, UniProt E2JF22)
- Sequence (E2JF22 whole entry): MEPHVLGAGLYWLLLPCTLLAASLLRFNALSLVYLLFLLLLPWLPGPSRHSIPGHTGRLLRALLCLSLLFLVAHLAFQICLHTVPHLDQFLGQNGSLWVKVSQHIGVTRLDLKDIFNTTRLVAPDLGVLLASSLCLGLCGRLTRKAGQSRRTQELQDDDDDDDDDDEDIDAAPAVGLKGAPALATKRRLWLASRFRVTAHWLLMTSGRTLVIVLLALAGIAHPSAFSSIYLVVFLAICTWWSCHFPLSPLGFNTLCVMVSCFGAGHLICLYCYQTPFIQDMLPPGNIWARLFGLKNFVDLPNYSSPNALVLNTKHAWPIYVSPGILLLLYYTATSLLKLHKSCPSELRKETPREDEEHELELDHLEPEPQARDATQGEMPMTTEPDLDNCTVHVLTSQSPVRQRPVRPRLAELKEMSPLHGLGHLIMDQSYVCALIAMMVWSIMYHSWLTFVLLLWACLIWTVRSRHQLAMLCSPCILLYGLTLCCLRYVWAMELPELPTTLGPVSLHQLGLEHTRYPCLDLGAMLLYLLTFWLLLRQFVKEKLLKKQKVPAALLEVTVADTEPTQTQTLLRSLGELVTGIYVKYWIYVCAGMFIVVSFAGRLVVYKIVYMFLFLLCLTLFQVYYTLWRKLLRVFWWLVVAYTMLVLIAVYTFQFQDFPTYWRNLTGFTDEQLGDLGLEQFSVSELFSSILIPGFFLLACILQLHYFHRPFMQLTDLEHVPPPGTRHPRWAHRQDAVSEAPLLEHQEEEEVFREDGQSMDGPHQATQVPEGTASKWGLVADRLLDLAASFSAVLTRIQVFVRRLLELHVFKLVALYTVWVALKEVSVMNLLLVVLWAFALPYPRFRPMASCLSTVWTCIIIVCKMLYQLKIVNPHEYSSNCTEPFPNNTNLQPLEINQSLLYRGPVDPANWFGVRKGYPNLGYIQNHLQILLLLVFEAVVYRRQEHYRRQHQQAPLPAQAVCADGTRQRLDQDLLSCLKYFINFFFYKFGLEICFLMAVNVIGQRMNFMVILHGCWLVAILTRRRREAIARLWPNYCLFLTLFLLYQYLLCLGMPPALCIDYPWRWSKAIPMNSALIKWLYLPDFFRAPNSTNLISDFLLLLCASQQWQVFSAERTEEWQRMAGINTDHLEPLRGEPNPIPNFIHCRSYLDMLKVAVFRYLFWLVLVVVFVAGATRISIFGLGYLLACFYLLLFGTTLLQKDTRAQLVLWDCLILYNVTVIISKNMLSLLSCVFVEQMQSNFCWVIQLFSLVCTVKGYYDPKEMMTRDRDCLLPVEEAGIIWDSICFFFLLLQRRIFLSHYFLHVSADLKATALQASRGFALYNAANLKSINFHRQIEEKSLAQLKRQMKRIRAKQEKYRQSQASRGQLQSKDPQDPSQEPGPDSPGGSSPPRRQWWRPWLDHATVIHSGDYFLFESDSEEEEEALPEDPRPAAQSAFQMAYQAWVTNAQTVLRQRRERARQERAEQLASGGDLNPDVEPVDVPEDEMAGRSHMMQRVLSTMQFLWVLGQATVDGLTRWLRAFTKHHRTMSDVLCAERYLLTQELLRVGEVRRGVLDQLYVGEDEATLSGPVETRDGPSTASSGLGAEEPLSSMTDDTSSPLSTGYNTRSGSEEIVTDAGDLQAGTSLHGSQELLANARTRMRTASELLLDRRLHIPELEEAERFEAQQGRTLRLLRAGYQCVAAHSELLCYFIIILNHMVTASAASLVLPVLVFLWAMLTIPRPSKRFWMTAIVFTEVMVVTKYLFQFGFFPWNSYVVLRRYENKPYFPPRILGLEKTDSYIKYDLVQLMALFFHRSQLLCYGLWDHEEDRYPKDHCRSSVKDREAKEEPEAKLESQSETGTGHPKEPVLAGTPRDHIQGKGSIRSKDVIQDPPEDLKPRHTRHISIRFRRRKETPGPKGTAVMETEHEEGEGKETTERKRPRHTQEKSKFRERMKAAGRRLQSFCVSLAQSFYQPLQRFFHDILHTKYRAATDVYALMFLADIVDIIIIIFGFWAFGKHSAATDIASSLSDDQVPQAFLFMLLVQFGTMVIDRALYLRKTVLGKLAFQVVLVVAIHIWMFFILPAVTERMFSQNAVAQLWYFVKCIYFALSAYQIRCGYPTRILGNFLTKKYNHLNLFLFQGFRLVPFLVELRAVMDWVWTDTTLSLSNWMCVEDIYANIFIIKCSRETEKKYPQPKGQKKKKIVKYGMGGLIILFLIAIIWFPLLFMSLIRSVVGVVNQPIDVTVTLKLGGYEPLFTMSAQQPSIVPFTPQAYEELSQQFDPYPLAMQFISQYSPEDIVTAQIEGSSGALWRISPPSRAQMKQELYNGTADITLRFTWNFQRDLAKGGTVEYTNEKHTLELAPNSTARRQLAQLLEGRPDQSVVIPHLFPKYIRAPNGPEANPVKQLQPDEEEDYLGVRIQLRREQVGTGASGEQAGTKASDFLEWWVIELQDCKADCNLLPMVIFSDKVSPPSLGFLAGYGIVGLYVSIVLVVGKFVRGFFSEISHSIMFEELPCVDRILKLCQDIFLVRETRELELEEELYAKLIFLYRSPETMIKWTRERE
- experiment: Intracellular Ca2+ measurement (fura-2), T-REx-293 cells stably transfected
- measurement.setup: 1.5 min exposure; fitted Hill equation
Expressed in nM, but write only the number.

### Prompt Please give the measured EC50 for this compound: Clc1cccc(Cl)c1CSc1nnc(-c2cnccn2)s1
### Response 240

### Prompt Field entry: O=C(O)c1ccc(-c2cnc(SCc3c(Cl)cccc3Cl)s2)cc1
### Response 140

----------
- assay.target: G1994D mPIEZO1 (Mus musculus, UniProt E2JF22, G1994D)
- Construct: expressed in transfected cells
- experiment: Intracellular Ca2+ measurement (fura-2), T-REx-293 cells stably transfected
- Format: cell-based
- measurement.setup: long (20 min) exposure; normalized to 3 μM Yoda1
metric: pEC50
# log scale: pEC50 equals minus log10 of the concentration in mol/L

### Prompt // pEC50 lookup, key: Clc1cccc(Cl)c1CSc1nnc(-c2cnccn2)s1
### Response 6.51

----------
- assay.target: R2351Q mPIEZO1 (Mus musculus, UniProt E2JF22, R2351Q)
- experiment: Intracellular Ca2+ measurement (fura-2), T-REx-293 cells stably transfected
- measurement.setup: long (20 min) exposure; normalized to 3 μM Yoda1
metric: EC50
Answer format: value, then unit.

### Prompt Give EC50 (R2351Q mPIEZO1 (Mus musculus, UniProt E2JF22, R2351Q)) of the following molecule: Clc1cccc(Cl)c1CSc1nnc(-c2cnccn2)s1
### Response 420 nM

----------
- assay.target: E824V mPIEZO1 (Mus musculus, UniProt E2JF22, E824V)
- Sequence (E2JF22 whole entry E824V): as the sequence (E2JF22 whole entry) above, with E824V counted along it
- experiment: Intracellular Ca2+ measurement (fura-2), T-REx-293 cells stably transfected
- measurement.setup: normalized to the WT Yoda1 maximum response
metric: pEC50
# reply with the number alone; pEC50 is -log10 of concentration in mol/L

### Prompt Requested field: pEC50. Item: O=C(O)c1ccc(-c2cnc(SCc3c(Cl)cccc3Cl)s2)cc1 [Yoda2b]
### Response 6.12

----------
- assay.target: I2286T mPIEZO1 (Mus musculus, UniProt E2JF22, I2286T)
- Construct: expressed in transfected cells
- experiment: Intracellular Ca2+ measurement (fura-2), T-REx-293 cells stably transfected
- Type: cell-based
- measurement.setup: 1.5 min exposure
metric: EC50
Report field: quantity (unit follows the number).

### Prompt I'd like to know its EC50. The compound in question is O=C(O)c1ccc(-c2cnc(SCc3c(Cl)cccc3Cl)s2)cc1
### Response 710 nM

----------
- assay.target: G1994D mPIEZO1 (Mus musculus, UniProt E2JF22, G1994D)
- Construct: expressed in transfected cells
- experiment: Intracellular Ca2+ measurement (fura-2), T-REx-293 cells stably transfected
- Type: cell-based
- measurement.setup: 1.5 min exposure
metric: EC50 (µM)
Output spec: scalar in µM, unitless text.

### Prompt Query (molecule): O=C(O)c1ccc(-c2cnc(SCc3c(Cl)cccc3Cl)s2)cc1 ; field requested: EC50
### Response 1

----------
- experiment: Aqueous (kinetic) solubility
- Assay type: physicochemical
- measurement.setup: pH 7.4, aqueous buffer, kinetic from dmso stock; physiological pH in PBS
metric: solubility kinetic (µM)
Numeric answer only, unit µM assumed.

### Prompt Recorded solubility kinetic for O=C(O)c1ccc(-c2cnc(SCc3c(Cl)cccc3Cl)s2)cc1 [Yoda2b] , please?
### Response 6.1

----------
- experiment: Mouse microsomal stability
- Format: in vitro ADME
- measurement.setup: mouse microsomes
- Procedure: Aqueous solubility, mouse microsomal stability and mouse plasma protein binding assays were performed by Malvern Panalytical (UK) as previously described.[29]
metric: half-life (min)
Record the value in min, omitting the unit from your answer.

### Prompt Reported half-life for O=C(O)c1ccc(-c2cnc(SCc3c(Cl)cccc3Cl)s2)cc1 [Yoda2b] : what is it?
### Response 7.2
